Target: T1, Axl (Homo sapiens, UniProt P30530)
T1 sequence (P30530 26-451 limits assumed): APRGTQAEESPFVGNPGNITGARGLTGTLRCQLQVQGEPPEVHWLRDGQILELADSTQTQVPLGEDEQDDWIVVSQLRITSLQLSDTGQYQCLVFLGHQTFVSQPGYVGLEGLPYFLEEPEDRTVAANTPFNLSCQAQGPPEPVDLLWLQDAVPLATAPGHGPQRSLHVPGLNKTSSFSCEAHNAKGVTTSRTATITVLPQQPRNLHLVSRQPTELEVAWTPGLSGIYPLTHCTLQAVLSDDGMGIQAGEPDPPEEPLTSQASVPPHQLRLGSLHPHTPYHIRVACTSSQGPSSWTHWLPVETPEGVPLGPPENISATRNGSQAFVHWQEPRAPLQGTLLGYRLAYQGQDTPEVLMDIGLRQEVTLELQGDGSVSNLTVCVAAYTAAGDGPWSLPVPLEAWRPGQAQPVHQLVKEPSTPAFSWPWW
Assay: Affinity ELISA of CPE mutant antibodies for binding to Axl at pH 6.0 over pH 7.4
Settings: light chain variable region mutants; 1:9 dilution
Could you please report measured Affinity ELISA CPE mutant ratio (1:9, pH 6.0/7.4) for the items listed next?
// keep it numeric: no unit symbol after the value

So, LC-W050F (antibody, V domains shown) VH: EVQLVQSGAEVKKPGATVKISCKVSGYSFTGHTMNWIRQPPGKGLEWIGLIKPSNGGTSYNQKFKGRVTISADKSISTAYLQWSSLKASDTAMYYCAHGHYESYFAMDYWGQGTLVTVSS VL: DIQMTQSPSSLSASVGDRVTITCKASQDVSSAVAWYQQKPGQAPRLLIYFASTRHTGVPSRFSGSGSGTEFTLTISSLQPDDFATYYCQEHFSTPLTFGQGTKVEIK ? Its Affinity ELISA CPE mutant ratio (1:9, pH 6.0/7.4) was 3.504

So, LC-P095E (antibody, V domains shown) VH: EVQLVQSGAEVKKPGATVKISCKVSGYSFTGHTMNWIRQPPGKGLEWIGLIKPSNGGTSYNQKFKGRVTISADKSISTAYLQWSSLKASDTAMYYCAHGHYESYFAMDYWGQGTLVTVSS VL: DIQMTQSPSSLSASVGDRVTITCKASQDVSSAVAWYQQKPGQAPRLLIYWASTRHTGVPSRFSGSGSGTEFTLTISSLQPDDFATYYCQEHFSTELTFGQGTKVEIK ? Its Affinity ELISA CPE mutant ratio (1:9, pH 6.0/7.4) was 7.511

So, LC-P095K (antibody, V domains shown) VH: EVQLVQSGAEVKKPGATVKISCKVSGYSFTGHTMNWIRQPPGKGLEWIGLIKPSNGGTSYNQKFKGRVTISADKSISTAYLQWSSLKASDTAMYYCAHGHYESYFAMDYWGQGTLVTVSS VL: DIQMTQSPSSLSASVGDRVTITCKASQDVSSAVAWYQQKPGQAPRLLIYWASTRHTGVPSRFSGSGSGTEFTLTISSLQPDDFATYYCQEHFSTKLTFGQGTKVEIK ? Its Affinity ELISA CPE mutant ratio (1:9, pH 6.0/7.4) was 3.468
